# System: M14
# protocol summary: NCI tumour cell line growth inhibition, 48 h
Activity calls are given as the source filed them. No stated cut-off is given here; in the data, active = GI50 up to about 1.1 µM and inactive = higher.
Pick one: active, inactive

1) Cc1[nH]c(O)nc1C(=O)c1ccc(-n2ccnc2)cc1 : inactive
2) C=CCNC1=C2C[C@@H](C)C[C@@H](OC)[C@H](OC(=O)CN(C)C)[C@H](C)/C=C(\C)[C@@H](OC(N)=O)[C@H](OC)/C=C\C=C(/C)C(=O)NC(=CC1=O)C2=O : active

Prompt line: Can you look up the reported call for CCOC(=O)[C@@]1(C)CC(O)C(=O)N1C (some centres undefined) for me?
Response line: inactive

Prompt line: Please indicate how the test categorized Oc1ccc(C[C@@H]2CN[C@H](Cc3ccc(O)c(Br)c3)CN2)cc1 .
Response line: inactive

Prompt line: Hi, sorry to bother you, what did the test record for O=C1c2cc([N+](=O)[O-])cnc2S(=O)(=O)N1c1ccc(Oc2ccccc2)cc1 ?
Response line: inactive

Prompt line: For this molecule, state the assay outcome: O=C1C(Cl)=C(Nc2ccc(S(=O)(=O)Nc3ccccn3)cc2)C(=O)c2ccccc21
Response line: inactive

Prompt line: Test call, this molecule: COc1ccc2ccnc(Cc3ccc(OCc4ccccc4)c(OC)c3)c2c1
Response line: inactive

Prompt line: Please let me know the test result on file for C=C1CCC2[C@@H](CCC3[C@]2(C)CCC[C@]3(C)C(=O)OC)[C@@H]1CC=O (some centres undefined) .
Response line: inactive

Prompt line: Recorded test call requested for COc1ccc2c(CCNC(=O)/C=C/c3ccccc3)c(C(C)=O)[nH]c2c1[N+](=O)[O-]
Response line: inactive

---

# Test system: HT-29
# protocol summary: NCI tumour cell line growth inhibition, 48 h
The source made the active and inactive calls. No stated cut-off is given here; in the data, active = GI50 up to about 1.1 µM and inactive = higher.
In this exercise, the only acceptable responses are active, inactive

The examples below pair each entry with its known result.
1. C=C1C(=O)O[C@@H]2C[C@@]3(C)CCCC(=C)[C@@H]3C[C@H]12.C=C1C(=O)O[C@@H]2C[C@@]3(C)CCC[C@H](C)C3=C[C@H]12 : inactive
2. COC(=O)C1CC(C=O)=C(SC)N1 (configuration not stated) : inactive
3. Cc1cn2c(/C=N/NC(=N)N)c(-c3ccc([N+](=O)[O-])cc3)nc2s1 : inactive
4. Oc1c(/N=N/c2ccccc2)c2ccccc2c2ccc3ccccc3c12 : inactive
5. CCOC(=O)/C=C(/C=C\COC1CCCCO1)c1ccccc1 (configuration not stated) : inactive
6. OCC1O[C@H](O[C@@H]2CCCN3CC(O)C(O)[C@@H]23)C(O)C(O)C1O (some centres not stated) : inactive
7. CC1(c2ccccc2)CC(c2cccc([N+](=O)[O-])c2)=NO1 (configuration not stated) : inactive
8. CO/N=C1\CCC2(O)C3Cc4ccc(O)c5c4C2(CCN3CC2CC2)[C@H]1O5 (some centres not stated) : inactive

# ---- query compound ----
Prompt line: Lab log entry: Cc1cn([C@@H]2C[C@H]2CO)c(=O)[nH]c1=O — outcome as called in the assay?
Response line: inactive

---

I'd appreciate it if you could supply GI50 values for the items below.
# Test system: HCC 2998
# protocol summary: NCI tumour cell line growth inhibition, 48 h
Active and inactive are the calls of the source. No stated cut-off is given here; in the data, active = GI50 up to about 1.1 µM and inactive = higher.

Consider the following items and state reported GI50 for each.
1. CC(C)COC(=O)OC(=O)c1ccc(N(C)Cc2cnc3nc(N)nc(N)c3n2)cc1
2. COc1ccc(OC)c2c1CC(C(=O)O)(C(=O)O)CC2=O
3. O=C(OCc1ccccc1)N1c2cc([N+](=O)[O-])ccc2C(=O)N2CCC[C@H]2C1O (stereo not given in full)
4. O=C1CC(n2cccc2)c2c(Br)sc(Br)c21 (stereo not given)
5. Oc1c(/N=N/c2ccccc2)c2ccccc2c2ccc3ccccc3c12

Response line:
1. > 100 µM (inactive)
2. > 100 µM (inactive)
3. > 100 µM (inactive)
4. 15.4 µM (inactive)
5. > 100 µM (inactive)

---

# Tested on: OVCAR-3
# protocol summary: NCI tumour cell line growth inhibition, 48 h
Calls of active or inactive are those of the source. Cut-off read from the data, not from the text of the source: active = GI50 up to about 1.1 µM and inactive = higher.
value kind: GI50

Recorded results for 5 molecules are shown here.
1) CC1(C)OP(=O)(c2ccccc2)C=C1Br (stereo unspecified) : > 100 µM (inactive)
2) O=C1CC(=O)NC(NN2C(=O)/C(=C/c3ccccc3)N=C2c2ccccc2)=N1 : > 100 µM (inactive)
3) CSC(SC)=C(C#N)C(=O)Nc1ccc(C)cc1 : > 100 µM (inactive)
4) NC1=NN(c2ccccc2)C(=O)C1C(=O)C(=O)Nc1ccc(Cl)c(Cl)c1 (stereo unspecified) : > 100 µM (inactive)
5) CC1=C(C)CC(C#N)(C#N)C(C#N)(C#N)C1 : > 5.52 µM (inactive)

Query molecule follows.
Summary for this molecule, CCN(CC)c1c(C(=O)/C=C/c2ccc(F)cc2)c(-c2ccccc2)nn(C)c1=O : GI50 is 3.82 µM (inactive)

---

# Tested on: HOP-92
# protocol summary: NCI tumour cell line growth inhibition, 48 h
The source made the active and inactive calls. Cut-off read from the data, not from the text of the source: active = GI50 up to about 1.1 µM and inactive = higher.
Reply using exactly one outcome from T (active), F (inactive)

// known answers, use as guide
1) COC(=O)C1=C(C)NC(CF)=C(C(=O)OC)C1c1cccc2c(=O)c3ccccc3oc12 (configuration not stated) : F
2) O=[N+]([O-])c1ccc(C2SCc3nc4ccccc4n32)cc1 (configuration not stated) : F

Prompt line: Hey, what did the test say about COC(=O)C1OC(O[C@H]2CC[C@]3(C)[C@H]4CC=C5[C@@H]6CC(C)(C)CC[C@]6(C(=O)OC)[C@H](O)C[C@@]5(C)[C@]4(C)CC[C@H]3C2(C)C)C(O)C(O)C1O (some centres not stated) ?
Response line: F

Prompt line: Which result was noted for this compound in the test: CON(C)C(=O)CCCO
Response line: F

Prompt line: Assay outcome for CC(C)(C)OC(=O)N(CCCN)CCCCN(CCCN)C(=O)OC(C)(C)C : what was it?
Response line: F

Prompt line: Please indicate how the test categorized N#Cc1c(-c2ccc(Cl)cc2)c(-c2ccc(Cl)cc2)nn(CCOC(=O)CCC(=O)O)c1=O .
Response line: T

Prompt line: Record lookup: outcome of this test for CCn1c2ccccc2c2ccc3c(c21)C(=O)C=CC3=O ?
Response line: F

---

# Tested on: MDA-MB-435
# protocol summary: NCI tumour cell line growth inhibition, 48 h
Activity calls are given as the source filed them. No stated cut-off is given here; in the data, active = GI50 up to about 1.1 µM and inactive = higher. Starred links: 1 amine or outer side, 2 acyl side, 3 side chain; linkers in the order of their positions; H or OH if unused. Positions of bridges follow the written chain, without caps; N, C: chain ends. Non-standard residues stand in square brackets, D forms with d. Residues, ends and D or L forms follow the SMILES beside them. Chains are numbered I, II in the order given. Actinocin(1to9) = Cc1c2oc3c(C)ccc(C(=O)[*:2])c3nc-2c(C(=O)[*:1])c(N)c1=O; NMeV = CN[CH](C(=O)O)C(C)C; Sar = CNCC(=O)O
The reply should name one outcome from active, inactive

1. CC1=C(Br)C(=O)C(C)=C(Br)C1=O.Cc1c(O)c(Br)c(C)c(O)c1Br : inactive
2. Cc1cnc2c(c1)C(=O)N(c1ccc(Oc3ccccc3)cc1)S2(=O)=O : inactive
3. O=C(CN1CCOCC1)Nc1ccc2c(c1)C1Oc3ccccc3CC1CO2 (stereo unspecified) : inactive
4. CCC(C)C1NC(=O)C(NC(=O)c2c3nc4c(C(=O)NC5C(=O)NC(C(C)CC)C(=O)N6CCCC6C(=O)N(C)CC(=O)N(C)C(C(C)C)C(=O)OC5C)ccc(C)c4oc-3c(C)c(=O)c2N)C(C)OC(=O)C(C(C)C)N(C)C(=O)CN(C)C(=O)C2CCCN2C1=O (stereo unspecified) (I: TIP[Sar][NMeV] / II: TIP[Sar][NMeV]; ester I:1-I:C, II:1-II:C; linker I:N-II:N via Actinocin(1to9); configuration not given here) : active
5. NCCCCNCCCNC(=O)c1csc(-c2nc(CCN)sc2Cl)n1 : inactive
6. CC(=O)/C(=C\n1c(=S)[nH]c2ccc([N+](=O)[O-])cc21)C(=O)Nc1ccccc1C : inactive
7. CCOC(=O)CC(C)C(C#N)(OP1(=O)OC(c2ccccc2)C(C)N1C)c1ccccc1 (stereo unspecified) : inactive
8. O=S(=O)(CC#CCS(=O)(=O)c1ccccc1)c1ccccc1 : inactive

Prompt line: Given Cc1cc(C)nc(NS(=O)(=O)c2ccc(NC(=O)c3ccc4nc5ccccc5c(Nc5ccc(S(=O)(=O)N=C(N)N)cc5)c4c3)cc2)n1 , state the outcome it received in this test.
Response line: inactive

---

# System: Hs-578T
# protocol summary: NCI tumour cell line growth inhibition, 48 h
The source made the active and inactive calls. No stated cut-off is given here; in the data, active = GI50 up to about 1.1 µM and inactive = higher.
Would you kindly list GI50 for each of these molecules?

Below are worked cases with known answers.
1. Nc1nc2c(ncn2CC2CCC(CO)C2)c(=O)[nH]1 (configuration not stated) : > 100 µM (inactive)
2. CC(=O)Nc1ccc(C(=O)NN2C(=O)CSC2c2ccccc2)cc1 (configuration not stated) : > 100 µM (inactive)
3. C=C(C)CNCCN : > 100 µM (inactive)

Batch lookup, GI50 per entry.
1. NC(=S)Nc1ccc2c(c1)oc1ccccc12
2. COc1c(Cl)c(=O)oc2ccc(Cl)cc12
3. CCCCCCCCCCCCCCCCOP(=O)(O)OCC(NC(C)=O)C(=O)O (configuration not stated)
4. [N-]=[N+]=NC1=C(c2ccccn2)C(=O)c2cccc3cccc1c23

Response line:
1. > 100 µM (inactive)
2. > 100 µM (inactive)
3. 27.9 µM (inactive)
4. 27 µM (inactive)
